Reference source for all entries: patent US7960369B2

Target: human GPR40 (Homo sapiens, UniProt O14842)
Sequence (O14842 whole entry): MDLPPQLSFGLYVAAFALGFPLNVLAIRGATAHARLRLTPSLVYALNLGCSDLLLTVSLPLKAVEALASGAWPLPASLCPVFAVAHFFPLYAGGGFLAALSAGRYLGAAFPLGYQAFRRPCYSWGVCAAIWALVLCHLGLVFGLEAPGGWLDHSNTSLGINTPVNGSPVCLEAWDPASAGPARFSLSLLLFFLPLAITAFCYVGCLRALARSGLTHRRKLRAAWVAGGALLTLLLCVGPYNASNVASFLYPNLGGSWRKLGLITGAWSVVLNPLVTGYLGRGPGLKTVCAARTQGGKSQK
Experiment: Effect of regulation of GPR40 receptor function (agonistic effect), intracellular calcium by FLIPR
Settings: CHO cell line (No. 104) expressing human GPR40, fluorescence intensity at 30 sec after start of reaction
Protocol: CHO cell line (No. 104) made to express human GPR40 was diluted such that 3×10^4 cells/100 μL were contained, dispensed to a black walled 96-well plate (Costar) at 100 μL per well, and incubated overnight in a CO2 incubator. The changes in the intracellular calcium concentration were measured using FLIPR (Molecular Device). The method is described in the following. […]
Measured Quantity: EC50 (nM)

Consider the following illustrative entries.
O=C(O)CCc1ccc(OCc2ccc(-c3ccccc3)cc2)cc1; 130
O=C(O)CCc1ccc(OCc2ccc(OCc3ccccc3)cc2)cc1; 160
O=C(O)CCc1ccc(O[C@@H]2CCc3ccccc32)cc1; 55
O=C(O)CCc1ccc(OCCCc2ccccc2)cc1 [Reference Example 6, 4-(3-phenylpropoxy)benzenepropanoic acid]; 460
O=C(O)CCc1ccc(OC2CCCc3ccccc32)cc1 (stereo not shown); 170

I. CN(Cc1ccc(C(=O)Nc2ccc(CCC(=O)O)cc2)cc1)c1nc(-c2ccccc2)cs1 [Reference Example 15]
II. O=C(O)CCc1ccc(OCc2ccccc2)cc1 [Reference Example 2, 4-(phenylmethoxy)benzenepropanoic acid]
// returns I or II , whichever has the lower EC50 Answer with the label corresponding to your selection.
II
(II: 320 nM, I: 1200 nM)
